- Test system: D54 ERlucT glycosylation luciferase reporter, luminescence, 24 h
- EXPERIMENTAL PROTOCOL: N-linked glycosylation inhibitors, luciferase reporter, dose response, D54 ERlucT cells, luminescence, cherry-picks (AID 624491);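 also: signal gain reflects blocked N-linked glycosylation of a luciferase reporter; actives raise luciferase signal so AC26 marks activators of the reporter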
I'd appreciate it if you could supply AC26 values for the items below.

Lookup: Request - read-out AC26 | tested on D54 ERlucT glycosylation luciferase reporter, luminescence, 24 h | compound CC1CN(C(=O)c2ccc(COc3ccc(C(C)C)cc3)o2)CC(C)O1 (stereo not drawn)
Found: 3780 nM

Lookup: Request - read-out AC26 | tested on D54 ERlucT glycosylation luciferase reporter, luminescence, 24 h | compound `O=C(N/N=C/c1ccc(Cl)cc1)c1cc(-c2cccnc2)nc2ccccc12`
Found: 417 nM

Lookup: Request - read-out AC26 | tested on D54 ERlucT glycosylation luciferase reporter, luminescence, 24 h | compound `Cc1cc(-n2c(C)cc(C(=O)CCl)c2C)no1`
Found: 2160 nM

Lookup: Request - read-out AC26 | tested on D54 ERlucT glycosylation luciferase reporter, luminescence, 24 h | compound `COc1cccc2nc3c(C(=O)NCCN(C)C)cccc3cc12`
Found: 164 nM

Lookup: Request - read-out AC26 | tested on D54 ERlucT glycosylation luciferase reporter, luminescence, 24 h | compound `Cc1nn(-c2ccccc2)c(Cl)c1/C=C/C(=O)c1ccc(O)cc1`
Found: 5020 nM

Lookup: Request - read-out AC26 | tested on D54 ERlucT glycosylation luciferase reporter, luminescence, 24 h | compound `COc1ccc(C(=O)/C=C/c2ccccc2)c(O)c1`
Found: 1520 nM

Lookup: Request - read-out AC26 | tested on D54 ERlucT glycosylation luciferase reporter, luminescence, 24 h | compound `C=CCOc1ccc2nc(NC(=O)OC)[nH]c2c1`
Found: 414 nM

Lookup: Request - read-out AC26 | tested on D54 ERlucT glycosylation luciferase reporter, luminescence, 24 h | compound `c1ccc2c(c1)oc1c(-c3ccc4nccn4c3)cccc12`
Found: 8270 nM

Lookup: Request - read-out AC26 | tested on D54 ERlucT glycosylation luciferase reporter, luminescence, 24 h | compound `COc1ccc(C(=O)CSc2nn3c(=O)c(C(C)(C)C)nnc3s2)cc1`
Found: 3870 nM

Lookup: Request - read-out AC26 | tested on D54 ERlucT glycosylation luciferase reporter, luminescence, 24 h | compound `c1ccc2cc3c(NCCN4CCOCC4)ccnc3cc2c1`
Found: 515 nM

Lookup: Request - read-out AC26 | tested on D54 ERlucT glycosylation luciferase reporter, luminescence, 24 h | compound `Cc1ccc(C=Nc2ccccc2C(N)=O)cc1`
Found: 2520 nM

Lookup: Request - read-out AC26 | tested on D54 ERlucT glycosylation luciferase reporter, luminescence, 24 h | compound `Cc1ccc(-n2c(SCC(=O)NCCC3=CCCCC3)nc3n[nH]c(C)c3c2=N)cc1Cl`
Found: 6130 nM

Lookup: Request - read-out AC26 | tested on D54 ERlucT glycosylation luciferase reporter, luminescence, 24 h | compound CCCCOc1ccccc1C1CC(=O)NC2=C1C(=O)CCC2 (stereo not drawn)
Found: 1320 nM

Lookup: Request - read-out AC26 | tested on D54 ERlucT glycosylation luciferase reporter, luminescence, 24 h | compound `COC(=O)Nc1nc(C)c(C(=O)c2ccccc2)s1`
Found: 7950 nM

Lookup: Request - read-out AC26 | tested on D54 ERlucT glycosylation luciferase reporter, luminescence, 24 h | compound `CSc1nnc(-c2sccc2OCc2ccccc2)n1C`
Found: 1950 nM

Lookup: Request - read-out AC26 | tested on D54 ERlucT glycosylation luciferase reporter, luminescence, 24 h | compound `Cc1ccc(C(=O)NC(=C(Cl)Cl)S(=O)(=O)c2ccc(C)cc2)cc1`
Found: 2550 nM

Lookup: Request - read-out AC26 | tested on D54 ERlucT glycosylation luciferase reporter, luminescence, 24 h | compound `COc1cc(C(=O)Nc2cc(C(F)(F)F)ccc2N2CCOCC2)ccc1OCC(=O)N1CCOCC1`
Found: 1820 nM

Lookup: Request - read-out AC26 | tested on D54 ERlucT glycosylation luciferase reporter, luminescence, 24 h | compound `O=C(COC(=O)c1ccc(NS(=O)(=O)c2cccs2)cc1O)NCc1ccccc1`
Found: 4820 nM

Lookup: Request - read-out AC26 | tested on D54 ERlucT glycosylation luciferase reporter, luminescence, 24 h | compound `CN=c1sc(C(=O)Nc2cccc(Cl)c2)cc(=O)n1C`
Found: 349 nM

Lookup: Request - read-out AC26 | tested on D54 ERlucT glycosylation luciferase reporter, luminescence, 24 h | compound `COc1ccccc1/C=N/NC(=O)CSc1cc(C)nc2ccccc12`
Found: 2940 nM

Lookup: Request - read-out AC26 | tested on D54 ERlucT glycosylation luciferase reporter, luminescence, 24 h | compound `COc1ccc([C@H]2CC(=O)C=C(c3c(OC)cccc3OC)C2)cc1`
Found: 3260 nM

Lookup: Request - read-out AC26 | tested on D54 ERlucT glycosylation luciferase reporter, luminescence, 24 h | compound `COc1ccc2oc(-c3ccccc3[N+](=O)[O-])cc(=O)c2c1`
Found: 568 nM

Lookup: Request - read-out AC26 | tested on D54 ERlucT glycosylation luciferase reporter, luminescence, 24 h | compound `COc1ccc(NC(=O)c2cc(S(=O)(=O)N(C)C)ccc2N2CCCC2)cc1Cl`
Found: 4800 nM
